Test system: HT-1080 cells
Method summary: Cellular dose response assay, HT-1080 with and without Fer-1
Format: cell-based, human
Test parameters: compounds alone; Table 7; read-out: IC50 (uM) HT1080^a
Experimental: HT-1080 (human [Homo sapiens] […] fibrosarcoma), A-673 (human [Homo sapiens] […] Ewing's sarcoma), and SK-HEP-1 (human [Homo sapiens] […] hepatic adenocarcinoma), cells were obtained from ATCC. […] HT-1080, HepG2, Huh7, HLF, and SK-HEP-1 cells were seeded into opaque white 384-well plates at 1500 cells per well then incubated at 37° C. with 5% CO2 overnight. […] Cell viability was evaluated using CellTiter-Glo (Promega G7573) and luminescence was recorded on a Victor 5 plate reader. […]
IC50 less than 3 µM is Met; IC50 greater than or equal to 3 µM is Not met.

>>> df
                                   molecule  classification
0  COc1ccc2cc(C(=O)NCC(C)(C)COC(=O)CBr)[nH]c2c1         Not met
1  CC(C)(COC(=O)CCl)NC(=O)c1[nH]c2ccccc2c1Br         Not met
2   Cn1nc(C(=O)NC(C)(C)COC(=O)CCl)c2ccccc21         Not met
3   Cn1nc(C(=O)NC(C)(C)COC(=O)CBr)c2ccccc21             Met
4  Cn1nc(C(=O)NC(C)(C)COC(=O)CCl)c2cc(Br)ccc21         Not met
5  Cn1nc(C(=O)NC(C)(C)COC(=O)CCl)c2cccc(OC(=O)CCl)c21         Not met
6  CC(C)(COC(=O)CCl)NC(=O)c1n[nH]c2cc(Br)ccc12         Not met
7  COC(=O)c1ccc([C@@H]2c3[nH]c4ccccc4c3C[C@@H](C(=O)OC)N2C(=O)CCl)cc1 [RSL3, reference compound]             Met
8  CC(C)(COC(=O)CCl)NC(=O)c1nn(-c2ccccc2)c2ccccc12         Not met
9    O=C(CBr)OCCCNC(=O)c1cc2cc(Cl)ccc2[nH]1             Met

----------
Target under test: UniProt:P36969
Sequence (P36969 1-170 isoform P36969-2): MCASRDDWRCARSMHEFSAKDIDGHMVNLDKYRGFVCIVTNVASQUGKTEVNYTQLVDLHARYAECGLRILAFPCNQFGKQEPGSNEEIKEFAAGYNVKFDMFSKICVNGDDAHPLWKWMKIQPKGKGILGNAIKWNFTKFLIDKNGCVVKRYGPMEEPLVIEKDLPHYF
Method summary: GPX4 activity assay in cell lysates (NADPH-coupled)
Format: biochemical
Set-up: endogenous in cells; host or cells: A-673 cell lysate
Test parameters: 200 μM; generation 2
Metric: GPX4% inhibition at 200 (μM) (%)

>>> print(df.to_string())
                               input_smiles  target_under_test  output_unit  recorded_number
0  Cn1nc(C(=O)NC(C)(C)COC(=O)C#C[Si](C)(C)C)c2ccccc21     UniProt:P36969            %              7.0
1  CC(C)(COC(=O)CCl)NC(=O)c1n[nH]c2cc(Br)ccc12     UniProt:P36969            %             97.6
2  Cc1onc(C(=O)OCC(C)(C)NC(=O)c2n[nH]c3ccccc23)c1[N+](=O)[O-]     UniProt:P36969            %              6.3
3  CC(C)(COC(=O)CCl)NC(=O)c1nn(-c2ccccc2)c2ccccc12     UniProt:P36969            %            104.8
4  Cc1onc(C(=O)OCC(C)(C)NC(=O)c2nn(C)c3ccccc23)c1[N+](=O)[O-]     UniProt:P36969            %            −15.4
